Source listed as patent US6632449B2.

experiment: physchem; details: saturated aqueous solution of the boron compound
attribute_measured: pKa

// sample `OB(O)O` , its pKa was ~9.2
